# measured-target: BIR3 domain of XIAP (Homo sapiens)
# Construct: Recombinant XIAP-BIR3 (residues 238-358); GST (N, cleaved yes); made in house; host or cells: E. coli
# protocol-details: Fluorescence displacement assay: AVPC-badan displaced from BIR3 by test tetrapeptide (typical assay, Tables 1 and 2)
# Type: binding, mammalian
# condition-context: binding (equilibrium) constant for displacement of AVP-dye, position-4 library; 5 μM dye and protein; larger = greater affinity
Residues, ends and D or L forms follow the SMILES beside them.
Recorded K determines the label; the label ranges are low group: < 0.05; middle group: ≥ 0.05 and < 0.1; high group: ≥ 0.1

Record excerpt, results attached:
CC(C)[C@H](NC(=O)[C@H](C)N)C(=O)N1CCC[C@H]1C(=O)N[C@@H](Cc1c[nH]c2ccccc12)C(N)=O [AVPW] (H-AVPW-NH2; N-terminus and C-terminus assumed) | high group
CSCC[C@H](NC(=O)[C@@H]1CCCN1C(=O)[C@@H](NC(=O)[C@H](C)N)C(C)C)C(N)=O [AVPM] (H-AVPM-NH2; N-terminus and C-terminus assumed) | middle group
CC(C)[C@H](NC(=O)[C@H](C)N)C(=O)N1CCC[C@H]1C(=O)N1CCC[C@H]1C(N)=O [AVPP] (H-AVPP-NH2; N-terminus and C-terminus assumed) | low group
CC(C)[C@H](NC(=O)[C@H](C)N)C(=O)N1CCC[C@H]1C(=O)NCC(N)=O [AVPG] (H-AVPG-NH2; N-terminus and C-terminus assumed) | middle group
CC(C)[C@H](NC(=O)[C@H](C)N)C(=O)N1CCC[C@H]1C(=O)N[C@@H](CCCCN)C(N)=O [AVPK] (H-AVPK-NH2; N-terminus and C-terminus assumed) | low group

IN: Please indicate the class for CC(C)[C@H](NC(=O)[C@H](C)N)C(=O)N1CCC[C@H]1C(=O)N[C@@H](CC(=O)O)C(N)=O [AVPD] (H-AVPD-NH2; N-terminus and C-terminus assumed) based on its K.
OUT: high group

IN: Please indicate the class for CC(C)[C@H](NC(=O)[C@H](C)N)C(=O)N1CCC[C@H]1C(=O)N[C@@H](Cc1c[nH]cn1)C(N)=O [AVPH] (H-AVPH-NH2; N-terminus and C-terminus assumed) based on its K.
OUT: middle group

IN: Please indicate the class for CC(C)[C@H](NC(=O)[C@H](C)N)C(=O)N1CCC[C@H]1C(=O)N[C@H](C(N)=O)[C@@H](C)O [AVPT] (H-AVPT-NH2; N-terminus and C-terminus assumed) based on its K.
OUT: high group

* * *

# measured-target: BIR3 domain of XIAP (Homo sapiens, UniProt P98170)
# Construct: Recombinant XIAP-BIR3 (residues 238-358); GST (N, cleaved yes); made in house; host or cells: E. coli
# Sequence (P98170 238-358): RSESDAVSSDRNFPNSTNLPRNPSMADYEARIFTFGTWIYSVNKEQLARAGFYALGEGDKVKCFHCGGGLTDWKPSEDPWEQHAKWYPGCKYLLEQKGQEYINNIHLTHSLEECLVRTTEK
# protocol-details: Fluorescence displacement assay: AVPC-badan displaced from BIR3 by test tetrapeptide (typical assay, Tables 1 and 2)
# Format: binding, mammalian
# condition-context: fraction of AVPC-badan free (displaced from BIR3), from intensity at 470 nm
Residues, ends and D or L forms follow the SMILES beside them.
Kindly apply the following: MET if Fraction free is less than 0.9, NOT MET in every other case.

Record excerpt, results attached:
CC(C)[C@H](NC(=O)[C@H](C)N)C(=O)N1CCC[C@H]1C(=O)N[C@@H](Cc1ccc(O)cc1)C(N)=O [AVPY] (H-AVPY-NH2; N-terminus and C-terminus assumed) | MET
CC[C@H](C)[C@H](NC(=O)[C@@H]1CCCN1C(=O)[C@H](CC(C)C)NC(=O)[C@H](C)N)C(N)=O [ALPI] (H-ALPI-NH2; N-terminus and C-terminus assumed) | MET
CC(C)[C@H](NC(=O)[C@H](C)N)C(=O)N1CCC[C@H]1C(=O)N[C@@H](Cc1c[nH]c2ccccc12)C(N)=O [AVPW] (H-AVPW-NH2; N-terminus and C-terminus assumed) | NOT MET
CC[C@H](C)[C@H](NC(=O)[C@@H]1CCCN1C(=O)[C@H](Cc1c[nH]cn1)NC(=O)[C@H](C)N)C(N)=O [AHPI] (H-AHPI-NH2; N-terminus and C-terminus assumed) | MET

Query compound follows.
IN: Record CC[C@H](C)[C@H](NC(=O)[C@@H]1CCCN1C(=O)[C@@H](NC(=O)[C@H](C)N)[C@@H](C)CC)C(N)=O [AIPI] (H-AIPI-NH2; N-terminus and C-terminus assumed) : is its Fraction free strictly below 0.9?
OUT: MET

* * *

Task for the reader: assign each of the following molecules its reported K.
# measured-target: BIR3 domain of XIAP (Homo sapiens, UniProt P98170)
# Construct: Recombinant XIAP-BIR3 (residues 238-358); GST (N, cleaved yes); made in house; host or cells: E. coli
# protocol-details: Fluorescence displacement assay: AVPC-badan displaced from BIR3 by test tetrapeptide (typical assay, Tables 1 and 2)
# Type: binding, mammalian
# condition-context: binding (equilibrium) constant for displacement of AVP-dye, position-4 library; 5 μM dye and protein; larger = greater affinity
Residues, ends and D or L forms follow the SMILES beside them.
Numbers only.

CC(C)[C@H](NC(=O)[C@H](C)N)C(=O)N1CCC[C@H]1C(=O)N[C@@H](CS)C(N)=O | 0.1034
CC(C)[C@H](NC(=O)[C@H](C)N)C(=O)N1CCC[C@H]1C(=O)N[C@@H](CO)C(N)=O [AVPS] (H-AVPS-NH2; N-terminus and C-terminus assumed) | 0.01304
CC(C)C[C@H](NC(=O)[C@@H]1CCCN1C(=O)[C@@H](NC(=O)[C@H](C)N)C(C)C)C(N)=O [AVPL] (H-AVPL-NH2; N-terminus and C-terminus assumed) | 0.3423
CC(C)[C@H](NC(=O)[C@H](C)N)C(=O)N1CCC[C@H]1C(=O)N[C@@H](CCC(=O)O)C(N)=O [AVPE] (H-AVPE-NH2; N-terminus and C-terminus assumed) | 0.03709
CC(C)[C@H](NC(=O)[C@@H]1CCCN1C(=O)[C@@H](NC(=O)[C@H](C)N)C(C)C)C(N)=O [AVPV] (H-AVPV-NH2; N-terminus and C-terminus assumed) | 0.1011

State the recorded K for every item in the following list.
1. CC(C)[C@H](NC(=O)[C@H](C)N)C(=O)N1CCC[C@H]1C(=O)N[C@@H](Cc1ccc(O)cc1)C(N)=O [AVPY] (H-AVPY-NH2; N-terminus and C-terminus assumed)
2. CC(C)[C@H](NC(=O)[C@H](C)N)C(=O)N1CCC[C@H]1C(=O)N[C@@H](C)C(N)=O [AVPA] (H-AVPA-NH2; N-terminus and C-terminus assumed)

OUT:
1: 1.1692; 2: 0.05518
